Where do the numbers come from? From patent US11155557B2.

Hi there, I'd appreciate the recorded Ki for every entry that follows.
- EXPERIMENTAL_SYSTEM: isolated recombinant JAK1 kinase domain (Homo sapiens (Human))
- TEST_NAME: JAK1 enzyme assay (Caliper LabChip, Ki)
- Format: biochemical
Give bare numbers, in nM.

MOLECULE	EXPERIMENTAL_SYSTEM	Ki / nM
COc1cc2sncc2cc1-c1n[nH]cc1NC(=O)c1cnn2cccnc12	isolated recombinant JAK1 kinase domain (Homo sapiens (Human))	0.91
O=C(Nc1c[nH]nc1-c1cc2cn[nH]c2cc1OC(F)F)c1cnn2cccnc12	isolated recombinant JAK1 kinase domain (Homo sapiens (Human))	0.07
NC(=O)c1cc2cc(OC(F)F)c(-c3nn(CC(=O)N4CCC(N5CCOCC5)CC4)cc3NC(=O)c3cnn4cccnc34)cc2s1	isolated recombinant JAK1 kinase domain (Homo sapiens (Human))	0.39

Switching to the query record.
# input Request the reported Ki associated with CC1Sc2cc(-c3nn(C)cc3NC(=O)c3cnn4cccnc34)c(OC(F)F)cc2NC1=O (single isomer, unassigned) [Example 97]
# output 0.13

* * *

- EXPERIMENTAL_SYSTEM: isolated recombinant JAK2 kinase domain (Homo sapiens (Human), UniProt O60674)
- Sequence (O60674 849-1124): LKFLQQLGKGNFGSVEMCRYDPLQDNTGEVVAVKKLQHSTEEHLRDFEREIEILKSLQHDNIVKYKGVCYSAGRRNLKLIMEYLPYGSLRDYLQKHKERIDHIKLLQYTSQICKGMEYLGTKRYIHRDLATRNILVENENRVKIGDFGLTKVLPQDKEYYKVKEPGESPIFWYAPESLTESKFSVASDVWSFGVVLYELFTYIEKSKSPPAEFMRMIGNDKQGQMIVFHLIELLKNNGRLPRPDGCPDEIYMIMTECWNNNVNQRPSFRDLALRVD
- TEST_NAME: JAK2 enzyme assay (Caliper LabChip, Ki)
MEASURED_PROPERTY: pKi
One number for each entry, as −log10 of the molar value.

Past entries and their recorded results:
COMPOUND	ASSAY_RESULT
O=C(Nc1c[nH]nc1-c1cc2cn[nH]c2cc1OC(F)F)c1cnn2cccnc12 [Example 21]	10.30
CCN1CCN(C(=O)Cn2cc(NC(=O)c3cnn4cccnc34)c(-c3cc4ccccc4cc3OC(F)F)n2)CC1 [Example 67]	8.39
CC[C@H](O)Cn1cc(NC(=O)c2cnn3cccnc23)c(-c2cc3c(cc2OC(F)F)NCCO3)n1 [Example 122]	9.60

Hey, quick one: what's pKi for each of these?
1. O=CN1CCN(C(=O)Cn2cc(NC(=O)c3cnn4cccnc34)c(-c3cc4ccccc4cc3OC(F)F)n2)CC1 [Example 68]
2. CC[C@@H](O)Cn1cc(NC(=O)c2cnn3cccnc23)c(-c2cc3c(cc2OC(F)F)NCCO3)n1 [Example 121]

# output
1: 8.79; 2: 9.35

* * *

- EXPERIMENTAL_SYSTEM: isolated recombinant JAK2 kinase domain (Homo sapiens (Human), UniProt O60674)
- TEST_NAME: JAK2 enzyme assay (Caliper LabChip, Ki)
- TEST_CONDITIONS: read-out: JAK2 Ki; formic acid
MEASURED_PROPERTY: pKi
Numbers only, as −log10 of the molar value.

# input Request the reported pKi associated with O=C(Nc1cn(C2CCOC2=O)nc1-c1cc2c(cc1OC(F)F)NCCO2)c1cnn2cccnc12 (single isomer, unassigned)
# output 9.54

* * *

Hi there, I'd appreciate the recorded pKi for every entry that follows.
- EXPERIMENTAL_SYSTEM: isolated recombinant JAK2 kinase domain (Homo sapiens (Human), UniProt O60674)
- TEST_NAME: JAK2 enzyme assay (Caliper LabChip, Ki)
- TEST_CONDITIONS: read-out: JAK2 Ki
Numbers only, as −log10 of the molar value.

Past entries and their recorded results:
COMPOUND	EXPERIMENTAL_SYSTEM	pKi
CN1CCC(n2cc(NC(=O)c3cnn4cccnc34)c(-c3cc4c(cc3OC(F)F)NCCS4)n2)C1=O (single isomer, unassigned) [Example 125]	isolated recombinant JAK2 kinase domain (Homo sapiens (Human), UniProt O60674)	9.96
NC(=O)c1cc2cc(OC(F)F)c(-c3nn(CC(=O)N4CCC(CN5CCOCC5)CC4)cc3NC(=O)c3cnn4cccnc34)cc2s1 [Example 61]	isolated recombinant JAK2 kinase domain (Homo sapiens (Human), UniProt O60674)	9.11
CNC(=O)Cn1cc(NC(=O)c2cnn3cccnc23)c(-c2cc3c(cc2OC(F)F)NCCS3)n1 [Example 117]	isolated recombinant JAK2 kinase domain (Homo sapiens (Human), UniProt O60674)	10.00
Cn1cc(NC(=O)c2cnn3cccnc23)c(-c2cc3c(cc2OC(F)F)NC(=O)CO3)n1 [Example 137]	isolated recombinant JAK2 kinase domain (Homo sapiens (Human), UniProt O60674)	10.10
COC(=O)Cn1cc(NC(=O)c2cnn3cccnc23)c(-c2cc3sc(C(N)=O)cc3cc2OC(F)F)n1 [Example 92]	isolated recombinant JAK2 kinase domain (Homo sapiens (Human), UniProt O60674)	9.70
NCCn1cc(NC(=O)c2cnn3cccnc23)c(-c2cc3c(cc2OC(F)F)NCCS3)n1 [Example 13]	isolated recombinant JAK2 kinase domain (Homo sapiens (Human), UniProt O60674)	9.89

# input Notebook entry, isolated recombinant JAK2 kinase domain (Homo sapiens (Human), UniProt O60674) assay: pKi of CN1CCC(Cn2cc(NC(=O)c3cnn4cccnc34)c(-c3cc4ccccc4cc3OC(F)F)n2)CC1 [Example 86] = ?
# output 8.99

* * *

- System: JAK1-dependent STAT6 phosphorylation in BEAS-2B human bronchial epithelial cells
- TEST_NAME: JAK1 pathway assay: IL-13 stimulated STAT6 phosphorylation in BEAS-2B cells
- Format: cell-based
- TEST_CONDITIONS: Homo sapiens, BEAS-2B, BEAS-2B cells, IL-13 stimulation; read-out: IL-13 p-STAT6 BEAS-2B IC50
Hi there, I'd appreciate the recorded IC50 for every entry that follows.

COMPOUND	IC50
O=C(Nc1c[nH]nc1-c1cc2c(cc1OC(F)F)CCCO2)c1cnn2cccnc12 [Example 17]	14 nM
COc1cc2ccsc2cc1-c1nn(CC(=O)N2CCC(N3CCOCC3)CC2)cc1NC(=O)c1cnn2cccnc12 [Example 54]	46 nM
O=C(Nc1c[nH]nc1-c1cc2c(cc1OC(F)F)OCCO2)c1cnn2cccnc12 [Example 150]	61 nM
CN(C)C(=O)Cn1cc(NC(=O)c2cnn3cccnc23)c(-c2cc3c(cc2OC(F)F)NCCO3)n1 [Example 100]	39 nM

Hey, quick one: what's IC50 for each of these?
1. CC1CSc2cc(-c3nn(CC(=O)N(C)C)cc3NC(=O)c3cnn4cccnc34)c(OC(F)F)cc2N1 (single isomer, unassigned) [Example 113]
2. O=C(Nc1cn(CC(=O)N2CCC(O)CC2)nc1-c1cc2c(cc1OC(F)F)NCCO2)c1cnn2cccnc12 [Example 48]

# output
1: 22 nM; 2: > 1000 nM

# input Request the reported IC50 associated with O=C(Nc1cn(CC(=O)N2CCCCC2)nc1-c1cc2c(cc1OC(F)F)NCCO2)c1cnn2cccnc12 [Example 6]
# output 17 nM

* * *

- EXPERIMENTAL_SYSTEM: isolated recombinant JAK1 kinase domain (Homo sapiens (Human), UniProt P23458)
- Sequence (P23458 875-1153): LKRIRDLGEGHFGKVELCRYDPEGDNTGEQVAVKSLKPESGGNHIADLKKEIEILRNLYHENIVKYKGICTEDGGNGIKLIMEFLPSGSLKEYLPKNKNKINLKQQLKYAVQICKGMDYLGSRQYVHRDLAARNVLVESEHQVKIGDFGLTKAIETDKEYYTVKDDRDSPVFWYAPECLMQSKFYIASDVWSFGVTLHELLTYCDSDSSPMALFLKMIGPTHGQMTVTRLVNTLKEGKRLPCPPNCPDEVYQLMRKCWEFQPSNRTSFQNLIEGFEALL
- TEST_NAME: JAK1 enzyme assay (Caliper LabChip, Ki)
- Format: biochemical
Under this convention, rule met denotes Ki strictly below 0.2 nM and rule not met denotes Ki at or above 0.2 nM.

MOLECULE	DISCRETE_LABEL
CC1Sc2cc(-c3nn(C)cc3NC(=O)c3cnn4cccnc34)c(OC(F)F)cc2NC1=O (single isomer, unassigned) [Example 98]	rule met
O=C(Nc1cn(CCN[C@@H]2CCOC2)nc1-c1cc2c(cc1OC(F)F)NCCS2)c1cnn2cccnc12 [Example 78]	rule met
CCOC(=O)c1cc2cc(-c3n[nH]cc3NC(=O)c3cnn4cccnc34)c(OC)cc2s1 [Example 36]	rule not met
O=C(Nc1cn(C2COC2)nc1-c1cc2c(cc1OC(F)F)NCCO2)c1cnn2cccnc12 [Example 84]	rule met
O=CN1CCN(C(=O)Cn2cc(NC(=O)c3cnn4cccnc34)c(-c3cc4ccccc4cc3OC(F)F)n2)CC1 [Example 68]	rule not met

Turning now to a further record.
# input For O=C(Nc1c[nH]nc1-c1cc2c(cc1OC(F)F)NCCO2)c1cnn2cccnc12 [Example 11] , is the recorded Ki below the cut-off of 0.2 nM?
# output rule met

* * *

- EXPERIMENTAL_SYSTEM: isolated recombinant JAK2 kinase domain (Homo sapiens (Human))
- TEST_NAME: JAK2 enzyme assay (Caliper LabChip, Ki)
- TEST_CONDITIONS: read-out: JAK2 Ki
Hi there, I'd appreciate the recorded Ki for every entry that follows.
Answers are plain numbers, in nM.

Past entries and their recorded results:
O=C(Nc1cn(Cc2ncco2)nc1-c1cc2c(cc1OC(F)F)NCCS2)c1cnn2cccnc12 0.15
O=C(Nc1cn(CC(=O)N2CCC(CN3CCOCC3)CC2)nc1-c1cc2c(cc1OC(F)F)NCCO2)c1cnn2cccnc12 0.51

Hey, quick one: what's Ki for each of these?
1. O=C(Nc1cn(CC(=O)N2CCC(O)CC2)nc1-c1cc2c(cc1OC(F)F)NCCS2)c1cnn2cccnc12
2. COc1cc2[nH]cnc2cc1-c1n[nH]cc1NC(=O)c1cnn2cccnc12

# output
[0.14, 0.9]

* * *

- Tested on: JAK1-dependent STAT6 phosphorylation in BEAS-2B human bronchial epithelial cells
- TEST_NAME: JAK1 pathway assay: IL-13 stimulated STAT6 phosphorylation in BEAS-2B cells
- Format: cell-based
- TEST_CONDITIONS: Homo sapiens, BEAS-2B, BEAS-2B cells, IL-13 stimulation; read-out: IL-13 p-STAT6 BEAS-2B IC50
Hi there, I'd appreciate the recorded pIC50 for every entry that follows.
Answers are plain numbers, as −log10 of the molar value.

Past entries and their recorded results:
COMPOUND	EXPERIMENTAL_SYSTEM	pIC50
COc1cc2ccsc2cc1-c1n[nH]cc1NC(=O)c1cnn2cccnc12	JAK1-dependent STAT6 phosphorylation in BEAS-2B human bronchial epithelial cells	8.52
CNC(=O)Cn1cc(NC(=O)c2cnn3cccnc23)c(-c2cc3c(cc2OC(F)F)NCCO3)n1	JAK1-dependent STAT6 phosphorylation in BEAS-2B human bronchial epithelial cells	7.38
O=C(Nc1c[nH]nc1-c1cc2cn[nH]c2cc1OC(F)F)c1cnn2cccnc12	JAK1-dependent STAT6 phosphorylation in BEAS-2B human bronchial epithelial cells	7.43
O=C(Nc1cn(CCN[C@@H]2CCOC2)nc1-c1cc2c(cc1OC(F)F)NCCS2)c1cnn2cccnc12	JAK1-dependent STAT6 phosphorylation in BEAS-2B human bronchial epithelial cells	7.89
CC[C@H](O)Cn1cc(NC(=O)c2cnn3cccnc23)c(-c2cc3c(cc2OC(F)F)NCCO3)n1	JAK1-dependent STAT6 phosphorylation in BEAS-2B human bronchial epithelial cells	7.49

Hey, quick one: what's pIC50 for each of these?
1. COc1cc2sccc2cc1-c1[nH]ncc1NC(=O)c1cnn2cccnc12
2. CCn1cc(NC(=O)c2cnn3cccnc23)c(-c2cc3ccccc3cc2OC(F)F)n1
3. O=C(Nc1cn(CC(=O)N2CCCCC2)nc1-c1cc2c(cc1OC(F)F)NCCS2)c1cnn2cccnc12
4. CC1CNc2cc(OC(F)F)c(-c3n[nH]cc3NC(=O)c3cnn4cccnc34)cc2S1 (single isomer, unassigned) [Example 93]
5. Cn1nncc1Cn1cc(NC(=O)c2cnn3cccnc23)c(-c2cc3c(cc2OC(F)F)NCCO3)n1

# output
1. 8.00
2. 7.82
3. 7.96
4. 8.22
5. 7.77
